# system-name: full length active recombinant SYK enzyme (Homo sapiens)
# Construct: full length active recombinant SYK enzyme (Millipore, Calif.)
# protocol: Inhibition of Syk tyrosine phosphorylation activity (LANCE TR-FRET kinase assay)
pIC50: −log10 of the molar value.
readout-name: pIC50

In [3]: df
Out[3]:
                               smiles_entry    data_value
0  Cc1cc(Nc2nc(N[C@@H]3CCCC[C@@H]3N)c(F)cc2C(N)=O)ccc1F  8.00 to 9.00
1  NC(=O)c1cc(F)c(N[C@@H]2CCCC[C@@H]2N)nc1Nc1cccc(-n2ccnc2)c1  8.00 to 9.00
2  CC[C@@H](Nc1ccc(C(N)=O)c(Nc2ccc3c(ccn3C)c2)n1)C(N)=O  7.00 to 8.00
3  Cc1cc(Nc2cc(N[C@@H](C(N)=O)c3ccccc3)ccc2C(N)=O)sn1  6.00 to 7.00
4  NC(=O)c1cc(F)c(N[C@@H]2CCCC[C@@H]2N)nc1Nc1cccc(Cl)c1  8.00 to 9.00

* * *

Here, each record is paired with measured IC50 data.
# system-name: full length active recombinant SYK enzyme (Homo sapiens, UniProt P43405)
# Construct: full length active recombinant SYK enzyme (Millipore, Calif.)
# protocol: Inhibition of Syk tyrosine phosphorylation activity (LANCE TR-FRET kinase assay)
readout-name: IC50

In [3]: df
Out[3]:
                                   compound  readout_name        data_value
0  NC(=O)c1cc(F)c(N[C@@H]2CCCC[C@@H]2N)nc1Nc1cccc2cnccc12 [Example 74]          IC50  0.001 to 0.01 µM
1  C[C@H](N)CNc1nc(Nc2cccc(-c3ncccn3)c2)c(C(N)=O)cc1F [Example 258]          IC50    0.01 to 0.1 µM
2  NC(=O)c1ccc(N[C@@H]2CCCC[C@@H]2N)nc1Nc1cnn2ccccc12 [Example 419]          IC50  0.001 to 0.01 µM
3  Cc1cccc(Nc2nc(N[C@@H]3CCCC[C@@H]3N)c(C#N)cc2C(N)=O)c1 [Example 107]          IC50  0.001 to 0.01 µM
4  CC[C@@H](Nc1ccc(C(N)=O)c(Nc2ccc3cccnc3c2)n1)C(N)=O [Example 204]          IC50    0.01 to 0.1 µM

* * *

# system-name: full length active recombinant SYK enzyme (Homo sapiens, UniProt P43405)
# Construct: full length active recombinant SYK enzyme (Millipore, Calif.)
# protocol: Inhibition of Syk tyrosine phosphorylation activity (LANCE TR-FRET kinase assay)
pIC50: −log10 of the molar value.
readout-name: pIC50

>>> print(df.to_string())
                               smiles_entry                               system_name    data_value
0  NC(=O)c1ccc(N[C@@H]2CCCC[C@@H]2N)nc1Nc1ccc2scnc2c1  full length active recombinant SYK enzyme (Homo sapiens, UniProt P43405)  8.00 to 9.00
1  NC(=O)c1cc(F)c(N[C@@H]2CCCC[C@@H]2N)nc1Nc1ccc(C(F)(F)F)nc1  full length active recombinant SYK enzyme (Homo sapiens, UniProt P43405)  7.00 to 8.00
2  Cc1cc(Nc2cc(N[C@@H](C(N)=O)C(C)C)ccc2C(N)=O)sn1  full length active recombinant SYK enzyme (Homo sapiens, UniProt P43405)  6.00 to 7.00
3  CC[C@@H](Nc1ccc(C(N)=O)c(Nc2ccc3ncsc3c2)n1)C(N)=O  full length active recombinant SYK enzyme (Homo sapiens, UniProt P43405)  7.00 to 8.00
4  Cc1cccc(Nc2cc(N[C@@H]3CCCC[C@@H]3N)ccc2C(N)=O)c1  full length active recombinant SYK enzyme (Homo sapiens, UniProt P43405)        < 6.00
5  NC(=O)c1cc(F)c(N[C@@H]2CCCC[C@@H]2N)nc1Nc1cnsc1  full length active recombinant SYK enzyme (Homo sapiens, UniProt P43405)  7.00 to 8.00
6  NC(=O)c1ccc(N[C@@H]2CCCC[C@@H]2N)nc1Nc1cccc2ncsc12  full length active recombinant SYK enzyme (Homo sapiens, UniProt P43405)  8.00 to 9.00
